tested on: mPTP-active Daoy cell; assay: Cell viability (Promega CellTiter-Glo), IC50 on mPTP-active Daoy cell; format: cell-based; conditions: Homo sapiens; Daoy cell transfected with empty virus vector
property.measured: pIC50
The quantity pIC50 is defined as the negative base-10 logarithm of the molar concentration.

Reported pIC50 for CCc1cn(Cc2ccccc2)c2cc[n+](C3CCc4ccc(Cl)cc4C3=O)cc12 (stereo not shown) [AB27171] was 5.71

Reported pIC50 for Nc1cc[n+](CC(=O)c2ccccc2)cc1 [AB36527] was 4.41

Reported pIC50 for O=C1c2cc(Cl)ccc2CCC1[n+]1ccc2c(c1)c(Cl)cn2Cc1ccccc1 (stereo not shown) [AB27172] was 5.40

Reported pIC50 for O=C1c2cc(C(F)(F)F)ccc2CCC1n1ccc2c[n+](Cc3ccccc3)ccc21 (stereo not shown) [AB27190] was 6.89

Reported pIC50 for O=C1c2cc(Cl)ccc2CCC1n1ncc2c[n+](Cc3ccccc3)ccc21 (stereo not shown) [AB27500] was 5.50

Reported pIC50 for O=C1c2cc(F)ccc2CCC1[n+]1ccc2c(ccn2Cc2ccccc2)c1 (stereo not shown) [AB27356] was 5.26

Reported pIC50 for CCCCn1ccc2c[n+](C3CCc4ccc(Cl)cc4C3=O)ccc21 (stereo not shown) [AB27251] was 5.10

Reported pIC50 for CN1c2nc[n+](C3CCc4ccc(Cl)cc4C3=O)cc2CCC1c1ccccc1 (stereo not shown) [AB27198] was 5.12

Reported pIC50 for Cc1cn(C2CCc3ccc(F)cc3C2=O)c2cc[n+](C(C)c3ccccc3)cc12 (stereo not shown) [AB27459] was 5.61

Reported pIC50 for O=C1c2sccc2CCC1n1ccc2c[n+](Cc3ccccc3)ccc21 (stereo not shown) [AB27345] was 5.17
